- Test system: ORYSA=Orysa sativa, Rice
- Protocol notes: Postemergence foliar-applied herbicides and safeners in direct-seeded rice, visual injury
- Assay type: in vivo
- Assay context: Oryza sativa, foliar, 480 h, foliar; safener 280 g ai/ha alone; trial of Tables 3,4,6,10,12,14; read-out: Visual Injury (%) - 20 DAA ORYSA-‘Clearfield 171’ Obs
- Excerpt: Seeds or nutlets of the desired test plant species were planted in a soil matrix prepared by mixing a loam or sandy loam soil (e.g., 28.6 percent silt, 18.8 percent clay, and 52.6 percent sand, with a pH of about 5.8 and an organic matter content of about 1.8 percent) and calcareous grit in an 80 to 20 ratio. The soil matrix was contained in plastic pots with a surface area of 84.6 square centimeters (cm^2). […]
Endpoint label: Visual crop injury (%) at 280 g/ha
Numeric answer only, unit % assumed.

Reference set (4 entries):
Compound	Endpoint label	Data value
Clc1cc(Cl)nc(-c2ccccc2)n1 [Fenclorim, 4,6-dichloro-2-phenylpyrimidine, reference compound]	Visual crop injury (%) at 280 g/ha	0
CC1(C)OC(c2ccco2)CN1C(=O)C(Cl)Cl (centres unmarked) [Furilazole, reference compound]	Visual crop injury (%) at 280 g/ha	18
C=CCN(CC=C)C(=O)C(Cl)Cl [Dichlormid, N,N-diallyl-2,2-dichloroacetamide]	Visual crop injury (%) at 280 g/ha	0
O=C1OC(=O)c2cccc3cccc1c23 [Naphthalic anhydride, 1H,3H-naphtho[1,8-cd]pyran-1,3-dione, reference compound]	Visual crop injury (%) at 280 g/ha	0

Here is the next item to consider.
# get_value(readout='Visual crop injury (%) at 280 g/ha', item= CC(C)(SC(=O)N1CCCCC1)c1ccccc1 [Dimepiperate, reference compound] ) 3
